Reported values of inhibition for individual entries
# ASSAY INFO: human hepatoma cell viability loss – ATP luminescence, cytotoxicity control for P. falciparum antimalarial project, primary screen (AID 2303);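 note: 0% = DMSO wells and 100% = digitonin-killed cells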
# ASSAY SETUP: HepG2 viability, 24-48 h, at 10 µM, hits give high values
MEASURE: inhibition (%)

* CC1CC(C)CN(CCCNc2ccc(C(=O)Nc3ccc(C(F)(F)F)cc3)cc2[N+](=O)[O-])C1 (centres undefined) | 31
* Cc1ccc(Nc2nc3cc(N(C)c4ccnc(Nc5cccc(CS(C)(=O)=O)c5)n4)ccc3o2)cc1 | -19
* N#Cc1ccnc(-c2ccc(CNC3CCN(CC4Cn5c(=O)ccc6ccc(F)c4c65)CC3)cc2)c1 (centres undefined) | 24
* CN(Cc1ccc(C#N)cc1)C1CCN(c2cc(NC(=O)c3ccc(F)cc3)ccn2)CC1 | 24
* Cc1cc(NN=Cc2cccc(F)c2)c2cccc(C)c2n1 | 14
* CN1CCC(C(=O)N(Cc2ccc(-c3ccc(CNCCc4ccc(S(C)(=O)=O)cc4)cn3)cc2)Cc2ccc3c(c2)OCO3)CC1 | 16
* N#Cc1ccc2c(c1)CCN(CCC1CCC(NC(=O)/C=C/c3ccc4[nH]ccc4c3)CC1)CC2 (centres undefined) | 2
* CC(C)N1CCC(NC(=O)N2CCCN(c3ncnc4cc(-c5ccccc5)sc34)CC2)CC1 | 31
* CC(CN(C)C)C(=O)Nc1cccc(-c2ccc(-c3nc4ccccc4[nH]3)cc2)c1 (centres undefined) | 1
